# pKd listing for each entry below
# Assayed System: Bcl-2 (biotinylated pro-survival Bcl-2 family protein) (UniProt P10415 1-217, limits assumed, biotinylated (co-expressed E. coli biotin ligase BirA))
# Sequence (P10415 1-217 limits assumed): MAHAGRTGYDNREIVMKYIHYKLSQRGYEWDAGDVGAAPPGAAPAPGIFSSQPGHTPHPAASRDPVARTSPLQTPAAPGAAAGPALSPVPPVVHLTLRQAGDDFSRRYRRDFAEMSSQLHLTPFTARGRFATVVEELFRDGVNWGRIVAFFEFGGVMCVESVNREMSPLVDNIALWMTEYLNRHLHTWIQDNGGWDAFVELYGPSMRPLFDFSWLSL
# Experimental Details: flow cytometry of E. coli displaying the peptide on eCPX, biotinylated target + streptavidin-PE; apparent Kd
Where no end group is shown, it is not given here. eCPX = enhanced circularly permuted OmpX display scaffold; linker = not defined here
In simple prose, pKd is minus the logarithm base ten of a concentration in moles per litre.

Answered examples (4):
Binder: WVAQWLRRWGDEFN (also: displayed as fusion to eCPX scaffold (letters not given here), Clone selected against Bcl-xL; not shown: eCPX display scaffold and the linker to it) [Bim BH3 14-mer variant X2-3 displayed on eCPX]
pKd: 6.03
//
Binder: WLAQLLRRYGDEFN (also: displayed as fusion to eCPX scaffold (letters not given here), Clone selected against Bcl-xL; not shown: eCPX display scaffold and the linker to it) [Bim BH3 14-mer variant X2-8 displayed on eCPX]
pKd: 5.63
//
Binder: WIAQELRRIGDEFN-{linker-eCPX} (reading uncertain, also called WT; Bim WT; not shown: eCPX (enhanced circularly permuted OmpX) display scaffold and its linker, fused C-terminal to the peptide) [wild-type Bim BH3 14-mer peptide (residues 147-160) displayed on eCPX]
pKd: 7.01
//
Binder: WIAQQLRRIGDEFN (not fully specified, also called pseudo-wild-type Bim; Bim E151Q; not shown: eCPX display scaffold and the linker to it) [Bim BH3 14-mer E151Q (pseudo-wild-type) displayed on eCPX]
pKd: 6.76

The record that follows has no pKd shown yet.
Dear colleague, I am looking for the recorded pKd of the following binder: WLAQLLRRIGDEIN-{linker-eCPX} (reading uncertain; also: printed as Trp-Leu-Ala-Gln-Leu-Leu-Arg-Arg-Ile-Gly-Asp-Glu-Ile-Asn, Clone selected against Mcl-1; not shown: eCPX display scaffold and its linker, fused C-terminal to the peptide) [Bim BH3 14-mer variant M2-4 displayed on eCPX]
7.03
